target or test system: Mast/stem cell growth factor receptor Kit (Homo sapiens, UniProt P10721)
Sequence (P10721 whole entry, the tested form may be a part): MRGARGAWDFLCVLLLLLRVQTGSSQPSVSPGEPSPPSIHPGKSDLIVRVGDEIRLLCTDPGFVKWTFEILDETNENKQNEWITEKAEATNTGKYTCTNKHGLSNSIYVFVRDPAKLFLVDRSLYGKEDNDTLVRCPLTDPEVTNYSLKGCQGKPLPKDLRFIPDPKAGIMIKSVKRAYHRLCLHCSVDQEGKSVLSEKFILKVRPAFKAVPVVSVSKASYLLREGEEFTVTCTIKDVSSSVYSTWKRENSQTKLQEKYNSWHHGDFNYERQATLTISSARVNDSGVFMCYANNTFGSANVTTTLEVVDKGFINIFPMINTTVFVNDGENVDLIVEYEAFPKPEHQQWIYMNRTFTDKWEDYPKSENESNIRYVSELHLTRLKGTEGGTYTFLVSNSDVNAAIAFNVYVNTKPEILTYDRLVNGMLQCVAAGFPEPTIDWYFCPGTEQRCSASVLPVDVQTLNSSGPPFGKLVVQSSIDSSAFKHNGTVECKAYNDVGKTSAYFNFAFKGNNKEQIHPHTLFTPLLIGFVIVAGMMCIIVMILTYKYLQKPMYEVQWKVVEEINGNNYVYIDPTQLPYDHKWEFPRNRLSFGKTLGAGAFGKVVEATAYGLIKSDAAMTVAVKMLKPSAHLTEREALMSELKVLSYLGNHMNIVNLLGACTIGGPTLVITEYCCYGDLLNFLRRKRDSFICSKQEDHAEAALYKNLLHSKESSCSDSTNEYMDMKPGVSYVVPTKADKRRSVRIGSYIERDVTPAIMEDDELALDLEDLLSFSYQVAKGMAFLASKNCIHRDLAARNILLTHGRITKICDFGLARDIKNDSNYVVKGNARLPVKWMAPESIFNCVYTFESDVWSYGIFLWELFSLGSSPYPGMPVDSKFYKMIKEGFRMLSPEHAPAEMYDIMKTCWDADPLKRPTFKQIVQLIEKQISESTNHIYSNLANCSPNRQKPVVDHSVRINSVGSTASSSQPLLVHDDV
experimental details: Inhibition of recombinant human N-terminal GST/His6-tagged c-KIT (T544 to V976 residues) expressed in sf9 cells using Poly(Glu,Tyr) 4:1 as substrate after 60 mins in presence of [gamma33P]-ATP by scintillation counting method
pIC50: −log10 of the molar value.
Listed next: entries and their corresponding pIC50.

structure as smiles: O=C(CCCC(=O)N1C[C@@H](CCl)c2c1cc(O)c1ccccc21)N1C[C@@H](CCl)c2c1cc(O)c1ccccc21
pIC50: 5.52
--
structure as smiles: C[C@@H]1CN(C(=O)CCCC(=O)N2C[C@@H](C)c3c2cc(O)c2ccccc32)c2cc(O)c3ccccc3c21
pIC50: 5.08
